- Test system: Staphylococcus aureus
- Method: Antibacterial activity against methicillin-resistant Staphylococcus aureus clinical isolate 1
- Assay type: functional
Could you please mark met for values of MIC below 4 mg/L and not met for values at or above it?

Reference set, count: 4
Cn1cc(NC(=O)c2cc(NC(=O)c3ccc(/C=C/c4cccnc4)cc3)cn2C)cc1C(=O)NCCN1CCOCC1 | met
Cn1cc(NC(=O)c2cc(NC(=O)c3csc(/C=C/c4ccc5ccccc5n4)n3)cn2C)cc1C(=O)NCCN1CCOCC1 | not met
CN(C)CCCNC(=O)c1cc(NC(=O)c2cc(NC(=O)c3ccc(/C=C/c4cnc5ccccc5c4)cc3)cn2C)cn1C | not met
COc1cccc(/C=C/c2cccc(C(=O)Nc3cc(C(=O)Nc4nc(C(=O)NCCCN(C)C)c(CCC(C)C)s4)n(C)c3)c2)c1 | not met

Req: Lab log: compare recorded MIC with 4 mg/L; is it strictly lower for CC(C)c1sc(NC(=O)c2cc(NC(=O)c3cc(NC(=O)c4ccc5c(c4)OCO5)cn3C)cn2C)nc1C(=O)NCCCN(C)C ?
Resp: not met

Req: Given CSc1ccc(/C=C/c2ccc(C(=O)Nc3cc(C(=O)Nc4cc(C(=O)NCCN5CCOCC5)n(C)c4)n(C)c3)cn2)cc1 , is recorded MIC strictly lower than 4 mg/L?
Resp: met

----------
- System: Staphylococcus aureus
- Method: Antibacterial activity against methicillin-resistant Staphylococcus aureus clinical isolate 1
- Type: functional
Metric name: MIC (µg/mL)
Number in µg/mL, nothing else.

The examples below pair each entry with its known result.
Cn1cccc1/C=C/c1ccc(C(=O)Nc2cc(C(=O)Nc3cc(C(=O)NCCN4CCOCC4)n(C)c3)n(C)c2)cc1 | 4
CSc1ccc(/C=C/c2ccc3cc(C(=O)Nc4cc(C(=O)Nc5cc(C(=O)NCCN6CCOCC6)n(C)c5)n(C)c4)ccc3n2)cc1 | 4
CN(C)CCCNC(=O)c1cc(NC(=O)c2cc(NC(=O)c3ccc(/C=C/c4ccncc4)cc3)cn2C)cn1C | 16
COc1cccc(/C=C/c2ccc(C(=O)Nc3cc(C(=O)Nc4cc(C(=O)NCCN5CCOCC5)n(C)c4)n(C)c3)cc2)c1 | 2
CC(=N)Nc1cc(C(=O)Nc2cc(C(=O)Nc3nc(C(=O)NCCN4CCOCC4)c(C(C)C)s3)n(C)c2)n(C)c1 | 64

Here is another compound to look at.
Req: Entry COc1cccc(C(=O)Nc2cc(C(=O)Nc3cc(C(=O)Nc4nc(C(=O)NCCCN(C)C)c(C(C)C)s4)n(C)c3)n(C)c2)c1 needs its MIC filled in; supply it.
Resp: 16

----------
- Test system: Mycolicibacterium fortuitum
- Method: Antibacterial activity against Mycobacterium fortuitum NCTC 10394
- Format: functional
Reported MIC values for the following compounds.

Example entries begin here.
CC(=N)Nc1cc(C(=O)Nc2cc(C(=O)Nc3nc(C(=O)NCCCN(C)C)c(CCC(C)C)s3)n(C)c2)n(C)c1 | > 50 µg/mL
Cn1cc(NC(=O)c2cc(NC(=O)c3ccc(/C=C/c4cnc5ccccc5c4)cc3)cn2C)cc1C(=O)NCCN1CCOCC1 | 50 µg/mL

Let us examine a further case.
Req: With Mycolicibacterium fortuitum as the test system, provide measured MIC for this compound: CN(C)CCCNC(=O)c1cc(NC(=O)c2cc(NC(=O)c3cc(NC(=N)c4ccccc4)cn3C)cn2C)cn1C
Resp: > 50 µg/mL

----------
- Test system: Staphylococcus aureus
- Method: Antibacterial activity against methicillin-resistant Staphylococcus aureus clinical isolate 1
- Type: functional
Mark y only when MIC stays strictly below 4 µg/mL. Values equal to the cut-off are n.

Illustrative cases are given below, each with its answer.
CC(=N)Nc1cc(C(=O)Nc2cc(C(=O)Nc3cc(C(=O)NCCCN4CCOCC4)n(C)c3)n(C)c2)n(C)c1 | n
CC(C)c1sc(NC(=O)c2cc(NC(=O)c3cc(NC(=O)c4cccc(Cl)c4)cn3C)cn2C)nc1C(=O)NCCCN(C)C | n
Cn1cc(NC(=O)c2cc(NC(=O)c3ccc(/C=C/c4cnc5ccccc5c4)cc3)cn2C)cc1C(=O)NCCN1CCOCC1 | y
COc1cccc(/C=C/c2cc(C(=O)Nc3cc(C(=O)Nc4cc(C(=O)NCCCN(C)C)n(C)c4)n(C)c3)n(C)c2)c1 | n
CC(C)CCn1cc(NC(=O)c2cc(NC(=O)c3ccc4c(c3)OCO4)cn2C)cc1C(=O)Nc1cc(C(=O)NCCCN(C)C)n(C)c1 | n

Req: Answer whether the compound CC(C)CCc1sc(NC(=O)c2cc(NC(=O)c3cc(/C=C/c4ccc([N+](=O)[O-])cc4)cn3C)cn2C)nc1C(=O)NCCCN(C)C has MIC strictly less than 4 µg/mL
Resp: n

Req: Here's an entry: COc1ccc(/C=C/c2ccc(C(=O)Nc3cc(C(=O)Nc4cc(C(=O)NCCN5CCOCC5)n(C)c4)n(C)c3)cn2)cc1 . Is its MIC below 4 µg/mL?
Resp: y

----------
Each record here notes measured MIC.
- Tested on: Staphylococcus aureus
- Method: Antibacterial activity against methicillin-resistant Staphylococcus aureus clinical isolate 1
- Format: functional
Response body: numeric value in µg/mL, unit text excluded.

Req: Write down measured MIC (Staphylococcus aureus) for this compound. Cn1cc(NC(=O)c2cc(NC(=O)c3cc(/C=C/c4cnc5ccccc5c4)cn3C)cn2C)cc1C(=O)NCCN1CCOCC1
Resp: 4

Req: Supply MIC measured with Staphylococcus aureus for COc1cccc(C(=N)Nc2cc(C(=O)Nc3cc(C(=O)Nc4nc(C(=O)NCCN5CCOCC5)c(C(C)C)s4)n(C)c3)n(C)c2)c1 .
Resp: 16

Req: Enter recorded MIC with Staphylococcus aureus for CC(C)c1sc(NC(=O)c2cc(NC(=O)c3cc(NC=O)cn3C)cn2C)nc1C(=O)NCCN1CCOCC1 here.
Resp: 32

----------
- Test system: Staphylococcus aureus
- Method: Antibacterial activity against methicillin-resistant Staphylococcus aureus clinical isolate 1
- Type: functional
API: label(entry) gives true if the entry's MIC is strictly smaller than 8 µg/mL; on equality or larger values it gives false.

Consider the worked cases shown below.
Cn1cc(NC(=O)c2cc(NC(=O)c3cc(NC(=O)c4cccc(Cl)c4)cn3C)cn2C)cc1C(=O)NCCc1ccccn1 | false
COc1cccc(C(=N)Nc2cc(C(=O)Nc3cc(C(=O)Nc4cc(C(=O)NCCc5ccccn5)n(C)c4)n(C)c3)n(C)c2)c1 | false
COc1cccc(C(=N)Nc2cc(C(=O)Nc3cc(C(=O)Nc4cc(C(=O)NCCCN5CCOCC5)n(C)c4)n(C)c3)n(C)c2)c1 | false
COc1ccc(/C=C/c2ccc3cc(C(=O)Nc4cc(C(=O)Nc5cc(C(=O)NCCN6CCOCC6)n(C)c5)n(C)c4)ccc3n2)cc1 | true
CC(C)CCc1sc(NC(=O)c2cc(NC(=O)c3cc4ccccc4cn3)cn2C)nc1C(=O)NCCCN(C)C | false

Let us examine a further case.
Req: I wonder whether CC(C)CCc1sc(NC(=O)c2cc3ccccc3cn2)nc1C(=O)Nc1cc(C(=O)NCCCN(C)C)n(C)c1 has MIC below 8 µg/mL. Can you tell?
Resp: false

----------
- Tested on: Staphylococcus aureus
- Method: Antibacterial activity against methicillin-resistant Staphylococcus aureus clinical isolate 1
- Format: functional
Note to self: use Fulfilled only for MIC readings below 6 µg/mL; a reading exactly at 6 µg/mL still gets Not fulfilled.

Solved cases (4 shown):
Cn1cc(NC(=O)c2cc(NC(=O)c3cc(/C=C/c4ccc5ccccc5n4)cn3C)cn2C)cc1C(=O)NCCN1CCOCC1 | Fulfilled
Cn1cc(NC(=O)c2cc(NC(=O)c3ccc(/C=C/c4ccncc4)cc3)cn2C)cc1C(=O)NCCN1CCOCC1 | Fulfilled
COc1cccc(/C=C/c2ccc(C(=O)Nc3cc(C(=O)Nc4nc(C(=O)NCCCN(C)C)c(CCC(C)C)s4)n(C)c3)cc2)c1 | Not fulfilled
CN(C)CCCNC(=O)c1cc(NC(=O)c2cc(NC(=O)c3cc(NC(=N)c4ccc5ccccc5n4)cn3C)cn2C)cn1C | Not fulfilled

Req: Is the reported MIC for CC(C)CCn1cc(NC(=O)c2cc(NC(=O)c3cccc(Cl)c3)cn2C)cc1C(=O)Nc1cc(C(=O)NCCCN(C)C)n(C)c1 strictly below 6 µg/mL?
Resp: Not fulfilled

Req: Below 6 µg/mL on MIC? Entry Cn1cc(NC(=O)c2cc(NC(=O)c3ccc(/C=C/c4nc5ccccc5o4)cc3)cn2C)cc1C(=O)NCCN1CCOCC1 (stereo in doubt; 79)
Resp: Fulfilled

Req: Please determine if COc1cccc(/C=C/c2ccc(C(=O)Nc3cc(C(=O)Nc4cc(C(=O)NCCCN(C)C)n(C)c4)n(C)c3)cc2)c1 is below 6 µg/mL in terms of MIC.
Resp: Not fulfilled
